species: Homo sapiens; test: Selectivity ratio of IC50 for human recombinant CYP1A1 to IC50 for human recombinant CYP1B1
Quick reference for Ratio IC50 among some compounds
Note: the reply should be a number with no unit written.

> print(dat)
                          structurenotation  assayresult
1  [N-]=[N+]=N[C@H]1CC[C@H](c2cc(=O)c3ccc4ccccc4c3o2)CC1          7.7
2  O=c1cc([C@H]2CC[C@H](S)CC2)oc2c1ccc1ccccc12          3.6
3  C=C=C[C@H]1CC[C@@H](c2cc(=O)c3ccc4ccccc4c3o2)CC1         0.48
4      O=c1cc(-c2ccc(O)cc2)oc2c1ccc1ccccc12         0.99
5  [N-]=[N+]=N[C@H]1CC[C@@H](c2cc(=O)c3ccc4ccccc4c3o2)CC1          120
6  [N-]=[N+]=Nc1ccc(-c2cc(=O)c3ccc4ccccc4c3o2)cc1          3.6

Asked: I would be grateful if you could share the reported Ratio IC50 for "CC(=O)S[C@H]1CC[C@@H](c2cc(=O)c3ccc4ccccc4c3o2)CC1" .
Given back: 2.7

Asked: I would be grateful if you could share the reported Ratio IC50 for "CC(=O)S[C@H]1CC[C@H](c2cc(=O)c3ccc4ccccc4c3o2)CC1" .
Given back: 0.54

====

target: UniProt:P05177; experiment: Inhibition of human recombinant CYP1A2 using 7-ethoxyresorufin as substrate after 30 mins in presence of NADPH by EROD assay
property: IC50 (nM)
Your answer should be a plain number; it is taken to be in nM.

Example results:
> print(dat)
                                   compound  assayresult
1  [N-]=[N+]=NCC1CCC(c2cc(=O)c3ccc4ccccc4c3o2)CC1 (mixture of isomers)          433
2  [N-]=[N+]=Nc1ccc(-c2cc(=O)c3ccc4ccccc4c3o2)cc1         93.8
3  CC(=O)S[C@H]1CC[C@H](c2cc(=O)c3ccc4ccccc4c3o2)CC1          991

Kindly consider the entry below.
Asked: I would be grateful if you could share the reported IC50 for "[N-]=[N+]=N[C@H]1CC[C@@H](c2cc(=O)c3ccc4ccccc4c3o2)CC1" .
Given back: 667

====

biological target: CYP1A2 (Homo sapiens, UniProt P05177); assay: Inhibition of human recombinant CYP1A2 using 7-ethoxyresorufin as substrate assessed as percent enzyme activity at 1 uM after 30 mins in presence of NADPH by EROD assay relative to control; assay type: ADME; parameters: scale not given: the % may be the effect or the level left; conditions: recombinant CYP1A2, probe 7-ethoxyresorufin, read-out: Activity
Sequence (P05177 whole entry): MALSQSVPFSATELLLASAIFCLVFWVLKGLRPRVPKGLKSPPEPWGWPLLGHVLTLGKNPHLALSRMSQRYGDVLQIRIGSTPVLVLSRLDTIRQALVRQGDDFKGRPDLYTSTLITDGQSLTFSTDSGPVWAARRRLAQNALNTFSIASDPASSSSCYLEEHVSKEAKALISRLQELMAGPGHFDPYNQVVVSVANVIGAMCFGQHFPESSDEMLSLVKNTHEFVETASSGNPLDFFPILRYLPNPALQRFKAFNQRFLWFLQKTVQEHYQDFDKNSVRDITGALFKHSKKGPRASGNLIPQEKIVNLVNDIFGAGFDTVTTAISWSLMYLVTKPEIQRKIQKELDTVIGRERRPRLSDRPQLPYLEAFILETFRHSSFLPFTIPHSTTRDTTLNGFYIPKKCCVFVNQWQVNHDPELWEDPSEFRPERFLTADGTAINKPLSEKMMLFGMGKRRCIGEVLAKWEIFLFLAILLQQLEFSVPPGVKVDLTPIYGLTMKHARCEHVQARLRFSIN
property: activity at 0.5 h, 1 µM (%)
Your answer should be a plain number; it is taken to be in %.

> print(dat)
                                   compound  measurementunit  assayresult
1  [N-]=[N+]=Nc1cccc(-c2cc(=O)c3ccc4ccccc4c3o2)c1                %          6.9
2  CC(=O)SC1CCCC(c2cc(=O)c3ccc4ccccc4c3o2)C1 (mixture of isomers)                %          0.5
3  C=C=C[C@H]1CC[C@@H](c2cc(=O)c3ccc4ccccc4c3o2)CC1                %          4.3
4  CS(=O)(=O)O[C@@H]1CCC[C@@H](c2cc(=O)c3ccc4ccccc4c3o2)C1 (relative stereo)                %         69.1
5  O=c1cc([C@@H]2CCC[C@@H](O)C2)oc2c1ccc1ccccc12 (relative stereo)                %         73.9

Asked: I would be grateful if you could share the reported activity at 0.5 h, 1 µM for CC1CCC(c2cc(=O)c3ccc4ccccc4c3o2)CC1 (mixture of isomers) .
Given back: 63

Asked: I would be grateful if you could share the reported activity at 0.5 h, 1 µM for "O=c1cc(C2=CCCCC2)oc2c1ccc1ccccc12" .
Given back: 21.2

Asked: I would be grateful if you could share the reported activity at 0.5 h, 1 µM for "CC(=O)S[C@H]1CC[C@@H](c2cc(=O)c3ccc4ccccc4c3o2)CC1" .
Given back: 42.7

Asked: I would be grateful if you could share the reported activity at 0.5 h, 1 µM for [N-]=[N+]=NC1CCCC(c2cc(=O)c3ccc4ccccc4c3o2)C1 (mixture of isomers) .
Given back: 42.5
